biological target: Tyrosine-protein kinase Lyn (Homo sapiens)
Sequence (P07948 whole entry): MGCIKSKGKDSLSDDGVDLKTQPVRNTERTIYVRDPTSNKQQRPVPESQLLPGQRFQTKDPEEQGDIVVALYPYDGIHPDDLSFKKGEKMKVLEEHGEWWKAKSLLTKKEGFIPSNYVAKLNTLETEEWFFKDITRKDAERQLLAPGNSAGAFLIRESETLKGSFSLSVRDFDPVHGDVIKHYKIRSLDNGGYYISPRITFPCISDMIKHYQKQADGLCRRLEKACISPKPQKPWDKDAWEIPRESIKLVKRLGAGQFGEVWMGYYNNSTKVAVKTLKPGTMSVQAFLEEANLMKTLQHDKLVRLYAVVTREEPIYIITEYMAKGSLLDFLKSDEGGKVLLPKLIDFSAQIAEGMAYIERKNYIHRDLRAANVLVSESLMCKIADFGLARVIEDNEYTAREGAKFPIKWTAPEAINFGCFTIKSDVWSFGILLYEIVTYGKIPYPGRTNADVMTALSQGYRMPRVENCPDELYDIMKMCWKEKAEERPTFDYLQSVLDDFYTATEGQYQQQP
metric: IC50
Reply with a number, then the unit it belongs to.

**Query** Return reported IC50. Input compound: "Cc1cccc(C)c1-n1c(=O)c2cnc(Nc3ccc(N4CCN(C)CC4)cc3)nc2n2c3ccccc3nc12"
**Result** 21 nM

###

molecular target: UniProtKB P06239
Sequence (P06239 whole entry): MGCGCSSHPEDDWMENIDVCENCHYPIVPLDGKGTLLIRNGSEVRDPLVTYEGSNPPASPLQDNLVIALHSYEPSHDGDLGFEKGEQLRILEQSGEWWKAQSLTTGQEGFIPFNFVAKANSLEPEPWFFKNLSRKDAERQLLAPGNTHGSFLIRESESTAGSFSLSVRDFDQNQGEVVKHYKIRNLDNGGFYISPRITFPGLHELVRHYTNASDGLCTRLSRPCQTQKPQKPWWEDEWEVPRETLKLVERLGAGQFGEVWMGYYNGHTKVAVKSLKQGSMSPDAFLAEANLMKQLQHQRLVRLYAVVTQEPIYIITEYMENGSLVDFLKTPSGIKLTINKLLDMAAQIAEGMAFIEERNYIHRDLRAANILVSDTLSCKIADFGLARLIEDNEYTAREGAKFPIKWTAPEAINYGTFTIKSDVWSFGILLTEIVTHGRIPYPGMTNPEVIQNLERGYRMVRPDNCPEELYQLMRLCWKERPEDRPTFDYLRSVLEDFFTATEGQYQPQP
Would you kindly list pIC50 for each of these compounds?
Numbers only, as −log10 of the molar value.

Solved cases below.
**Query** Report pIC50, nothing else, for this compound: "Cc1cccc(C)c1-n1c(=O)c2cnc(Nc3ccc(OCCN(C)C)cc3)nc2n2c3ccccc3nc12"
**Result** 7.55

**Query** Supply recorded pIC50 for "COc1cc(Nc2ncc3c(=O)n(-c4c(C)cccc4C)c4nc5ccccc5n4c3n2)ccc1OCCCN1CCN(C)CC1" here.
**Result** 7.92

**Query** Determine its reported pIC50: "COc1cc(Nc2ncc3c(=O)n(-c4c(C)cccc4C)c4nc5ccccc5n4c3n2)cc(OC)c1OC"
**Result** 7.57

**Query** Provide only the value of recorded pIC50 for "COc1cc(Nc2ncc3c(=O)n(-c4c(C)cccc4C)c4nc5ccccc5n4c3n2)ccc1N1CCN(C)CC1"
**Result** 8.30

Could you report pIC50 for every entry in the following list?
1. COc1cc(Nc2ncc3c(=O)n(-c4c(C)cccc4C)c4nc5ccccc5n4c3n2)cc(OC)c1OCCN1CCN(C)CC1
2. COc1cc(Nc2ncc3c(=O)n(-c4c(C)cccc4C)c4nc5ccccc5n4c3n2)cc(OC)c1OCCN1CCOCC1
3. COc1cc(Nc2ncc3c(=O)n(-c4c(C)cccc4C)c4nc5ccccc5n4c3n2)cc(OC)c1OCCCN1CCN(C)CC1
4. CN1CCN(c2ccc(Nc3ncc4c(=O)n(-c5c(Cl)cc(Cl)cc5Cl)c5nc6ccccc6n5c4n3)cc2)CC1
5. COc1ccc(Cl)cc1-n1c(=O)c2cnc(Nc3ccc(N4CCN(C)CC4)cc3)nc2n2c3ccccc3nc12
6. COc1cc(Nc2ncnc(-n3c(Nc4c(C)cccc4C)nc4ccccc43)n2)cc(OC)c1OC
7. CN1CCN(c2ccc(Nc3ncc4c(=O)n(-c5c(Cl)cccc5Cl)c5nc6ccccc6n5c4n3)cc2)CC1

**Result**
[8.22, 8.00, 8.22, 8.10, 7.64, 9.00, 8.00]
